Data provenance is patent US10596268B2.

Reported Pain threshold value, Frey's hair by item:
# System: CFA rat model
# PROTOCOL DESCRIPTION: Pharmacodynamic experiment: Frey's hair pain threshold in CFA rat model
# Assay type: in vivo, SD rats
# ASSAY CONDITIONS: 24 h after administration, oral 10 mg/kg, mean ± standard deviation
// unit must come after the numeric part

MOLECULE	TARGET UNDER TEST	Pain threshold value, Frey's hair
C[C@@]12CCCCC[C@@H](Cc3ccc(O)cc31)[C@@H]2N [JK-2215D00, reference compound]	CFA rat model	7.5 ± 1.8 g
COCCOCCOCCOCCOCCOCCOc1ccc2c(c1)C1(C)CCCCCC(C2)C1N (stereo not shown)	CFA rat model	7.8 ± 1.4 g
COCCOCCOCCOCCOCCOCCN[C@H]1[C@H]2CCCCC[C@]1(C)c1cc(O)ccc1C2	CFA rat model	10.7 ± 1.5 g

Now look at this one.
Enquiry: Look at this molecule and give its reported Pain threshold value, Frey's hair. C[C@@]12CCCCC[C@@H](Cc3ccc(O)cc31)[C@@H]2NCCOCCOCCOCCOCCN[C@H]1[C@H]2CCCCC[C@]1(C)c1cc(O)ccc1C2 [JK-2215D03, Pentaethylene Glycol-Dezocine Conjugate]
Return: 10.6 ± 2.0 g
